Reference source for all entries: patent US12378224B2

Consider the following compounds; for each one, report its IC50.
target: human MER (528-end) (Homo sapiens (Human))
Sequence (Q12866 528-999 limits assumed): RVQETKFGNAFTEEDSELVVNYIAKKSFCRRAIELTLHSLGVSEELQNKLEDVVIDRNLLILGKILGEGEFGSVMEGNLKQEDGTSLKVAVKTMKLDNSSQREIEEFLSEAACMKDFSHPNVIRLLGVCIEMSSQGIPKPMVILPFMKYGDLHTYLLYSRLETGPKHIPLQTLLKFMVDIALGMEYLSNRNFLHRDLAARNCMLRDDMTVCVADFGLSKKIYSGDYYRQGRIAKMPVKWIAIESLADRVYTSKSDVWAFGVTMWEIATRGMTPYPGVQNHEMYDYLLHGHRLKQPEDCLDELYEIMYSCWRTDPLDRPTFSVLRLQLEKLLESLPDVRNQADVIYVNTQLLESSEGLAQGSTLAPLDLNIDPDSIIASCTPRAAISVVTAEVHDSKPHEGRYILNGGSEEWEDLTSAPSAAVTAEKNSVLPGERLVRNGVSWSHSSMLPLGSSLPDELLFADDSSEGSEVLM

Exercise: Please give the measured IC50 for this compound: Cn1cc(-c2cnc(N)c(C(=O)N[C@H]3CCN(Cc4ccccc4)C3)c2)cn1 [Example 207]
Key: > 1000 nM

Exercise: Please give the measured IC50 for this compound: COC(=O)c1ccc(OC)cc1OC(=O)N1CC[C@@H](NC(=O)c2cc(-c3cnn(C)c3)cnc2N)C1 [Example 65]
Key: > 1000 nM

Exercise: Please give the measured IC50 for this compound: Nc1ncc(-c2cnn(C3CCNCC3)c2)cc1C(=O)N[C@@H]1CCN(Cc2ccc(F)cc2)C1 [Example 153]
Key: 100 to 1000 nM

Exercise: Please give the measured IC50 for this compound: Cn1cc(-c2cnc(N)c(C(=O)N[C@@H]3CCN(C(=O)c4ccc5cc(O)ccc5c4)C3)c2)cn1 [Example 706]
Key: 100 to 1000 nM

Exercise: Please give the measured IC50 for this compound: Cn1cc(-c2cnc(N)c(C(=O)N[C@@H]3CCN(C(=O)Nc4cccc(-c5cccc(CO)c5)c4)C3)c2)cn1 [Example 264]
Key: 100 to 1000 nM

Exercise: Please give the measured IC50 for this compound: Cc1cc(OC(=O)N2CC[C@@H](NC(=O)c3cc(-c4cnn(C)c4)cnc3N)C2)ccc1Cl [Example 86]
Key: > 1000 nM

Exercise: Please give the measured IC50 for this compound: Cn1cc(-c2cnc(N)c(C(=O)N[C@@H]3CCN(CCOCc4ccccc4)C3)c2)cn1 [Example 229]
Key: > 1000 nM

Exercise: Please give the measured IC50 for this compound: Nc1ncc(-c2cnn(C3CCNCC3)c2)cc1C(=O)N[C@@H]1CCN(Cc2ccnc(Cl)c2)C1 [Example 631]
Key: > 1000 nM

Exercise: Please give the measured IC50 for this compound: Nc1ncc(-c2cnn(C3CCNCC3)c2)cc1C(=O)N[C@@H]1CCN(Cc2ccc(F)c(Cl)c2)C1 [Example 158]
Key: 100 to 1000 nM

Exercise: Please give the measured IC50 for this compound: CN1CCN(Cc2ccc(-c3ccc(C(=O)N4CC[C@@H](Nc5n[nH]c6ncc(-c7cnn(C)c7)cc56)C4)cc3)cc2)CC1 [Example 794]
Key: 10 to 100 nM

Exercise: Please give the measured IC50 for this compound: CN1CCC(n2cc(-c3cnc(N)c(C(=O)N[C@@H]4CCN(C(=O)Oc5cccc(-c6ccccc6)c5)C4)c3)cn2)CC1 [Example 96]
Key: 100 to 1000 nM

Exercise: Please give the measured IC50 for this compound: Cn1cc(-c2cnc(N)c(C(=O)N[C@@H]3CCN(C(=O)Oc4ccc5ncccc5c4)C3)c2)cn1 [Example 72]
Key: > 1000 nM

Exercise: Please give the measured IC50 for this compound: Cn1cc(-c2cnc(N)c(C(=O)N[C@@H]3CCN(C(=O)c4ccc5cc(NC6CCN(CCO)CC6)ccc5c4)C3)c2)cn1 [Example 817]
Key: 100 to 1000 nM

Exercise: Please give the measured IC50 for this compound: CN1CCN(C(=O)c2ccc(-c3cnc(N)c(C(=O)N[C@@H]4CCN(C(=O)c5ccc(-c6ccccc6Cl)cc5)C4)c3)cc2)CC1 [Example 588]
Key: 10 to 100 nM

Exercise: Please give the measured IC50 for this compound: C/C(=C\c1ccccc1)C(=O)N1CC[C@@H](NC(=O)c2cc(-c3cnn(C)c3)cnc2N)C1 [Example 426]
Key: > 1000 nM
